Protocol summary: qHTS for differential inhibitors of proliferation of Plasmodium falciparum line HB3 (AID 1886);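 also: parasites grown with compound for 72 h before SYBR Green readout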
Condition info: Plasmodium falciparum HB3 proliferation inhibition; series mostly up to 28.7 µM
Inconclusive results are not listed. Activity calls are given as the source filed them. Calls follow the shape of the dose curve; as a rule, active = well fitted curve in the direction sought with a large enough effect; inconclusive = small, poorly fitted or top-dose-only effect, or another doubt; inactive = no such curve, though single readings can be large or run the other way.
Outcome codes: active, inactive

compound=C=CCN1CC[C@]23c4c5ccc(O)c4O[C@H]2/C(=N/NC(=O)c2ccccc2)CC[C@@]3(O)[C@H]1C5 class_name=active
compound=NC(=O)CI class_name=inactive
compound="CC(N)Cc1c[nH]c2ccc(OCc3cccs3)cc12 (stereo unspecified)" class_name=active
compound=CN(N=O)c1cc(O)ccc1O class_name=inactive
compound=NC(=O)COc1c(F)cc(SCCNS(=O)(=O)c2ccccc2)cc1F class_name=inactive
compound=CCCN(CCC)CCc1ccc(O)c(O)c1 class_name=active

Numbers sourced from PubChem BioAssay (NCATS).
